B1: Membrane-associated guanylate kinase, WW and PDZ domain-containing protein 1, residues 352 to 401; numbered along this chain, Q96QZ7 (parent)
chain: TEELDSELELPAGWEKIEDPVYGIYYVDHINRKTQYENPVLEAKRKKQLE

# Variants of: B1
# ASSAY NOTES: abundance fitness (aPCA) (normalised: wild type 0, dead -1); higher = more abundant; growth selection in yeast, the domain comes from the species named
# CONDITION PARAMETERS: Homo sapiens
MEASURED ENDPOINT: abundance fitness
Answer using only a numeral; do not append any unit.

# VARIANT SPEC, RECORDED MEASUREMENT
rows = [
    ("H29A", -0.229),
]

The measured abundance fitness associated with A12H reads 0.07
